Here's what we have: AC50 numbers for Sodium-dependent noradrenaline transporter (Homo sapiens, UniProt P23975).

Example cases with answers are listed next.
CCCNC(=O)NS(=O)(=O)c1ccc(Cl)cc1 [CHLORPROPAMIDE] = > 30 µM
OC[C@H]1O[C@@H](n2cnc3c2NC=NC[C@H]3O)C[C@@H]1O = > 30 µM
CC(C(=O)O)c1ccc2c(c1)CC(=O)c1ccccc1S2 (stereo not given) = > 30 µM
CC(C)N(CCCCOCC(=O)O)c1cnc(-c2ccccc2)c(-c2ccccc2)n1 = > 30 µM

Required: AC50, one value per compound below.
1. CCCN(CCC)S(=O)(=O)c1ccc(C(=O)O)cc1
2. C[N+]1(C)CCC(=C(c2ccccc2)c2ccccc2)CC1
3. C=C1c2cccc(O)c2C(=O)C2=C(O)[C@]3(O)C(=O)C(C(N)=O)=C(O)[C@@H](N(C)C)[C@@H]3[C@@H](O)[C@H]12
4. O=C(O)c1cccnc1Nc1cccc(C(F)(F)F)c1
5. CCCc1cc(=O)[nH]c(=S)[nH]1
6. CCOC(=O)c1ccc(N)cc1

Output line:
["> 10 µM", "> 10 µM", "> 10 µM", "> 10 µM", "> 10 µM", "> 10 µM"]

----------
Exercise: for every item that follows, state its recorded AC50.
- System Under Test: Alpha-2A adrenergic receptor (Homo sapiens, UniProt P08913); note: assay procedure not described here
- Sequence (P08913 whole entry): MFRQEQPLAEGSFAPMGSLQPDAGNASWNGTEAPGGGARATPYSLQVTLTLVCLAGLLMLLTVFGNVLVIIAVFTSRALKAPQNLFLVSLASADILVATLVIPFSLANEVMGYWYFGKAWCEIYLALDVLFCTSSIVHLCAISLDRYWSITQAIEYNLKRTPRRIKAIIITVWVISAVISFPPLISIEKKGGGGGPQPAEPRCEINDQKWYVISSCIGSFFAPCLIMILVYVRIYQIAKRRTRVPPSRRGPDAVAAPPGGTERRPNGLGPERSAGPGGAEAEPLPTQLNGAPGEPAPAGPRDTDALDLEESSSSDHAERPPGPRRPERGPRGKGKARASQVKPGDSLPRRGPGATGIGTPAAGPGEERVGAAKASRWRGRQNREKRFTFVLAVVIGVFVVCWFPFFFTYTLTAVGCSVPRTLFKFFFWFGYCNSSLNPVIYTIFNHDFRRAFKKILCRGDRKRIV
- Type: functional, cell-based

Example cases with answers are listed next.
C/C=C(/C(=C/C)c1ccc(O)cc1)c1ccc(O)cc1 = > 10 µM
COc1ccc(C2C(=O)c3ccccc3C2=O)cc1 = > 10 µM
O=C(O)c1ccc(NC(=O)[C@H](Cc2ccc(O)cc2)NC(=O)c2ccccc2)cc1 [BENTIROMIDE] = > 10 µM

Required: AC50, one value per compound below.
1. CCOC(=O)c1c(CSc2ccccc2)n(C)c2cc(Br)c(O)c(CN(C)C)c12
2. CCCc1cc(=O)[nH]c(=S)[nH]1

Output line:
> 30 µM
> 10 µM

----------
- System Under Test: 5-hydroxytryptamine receptor 2A (Homo sapiens, UniProt P28223); note: assay procedure not described here
- Sequence (P28223 whole entry): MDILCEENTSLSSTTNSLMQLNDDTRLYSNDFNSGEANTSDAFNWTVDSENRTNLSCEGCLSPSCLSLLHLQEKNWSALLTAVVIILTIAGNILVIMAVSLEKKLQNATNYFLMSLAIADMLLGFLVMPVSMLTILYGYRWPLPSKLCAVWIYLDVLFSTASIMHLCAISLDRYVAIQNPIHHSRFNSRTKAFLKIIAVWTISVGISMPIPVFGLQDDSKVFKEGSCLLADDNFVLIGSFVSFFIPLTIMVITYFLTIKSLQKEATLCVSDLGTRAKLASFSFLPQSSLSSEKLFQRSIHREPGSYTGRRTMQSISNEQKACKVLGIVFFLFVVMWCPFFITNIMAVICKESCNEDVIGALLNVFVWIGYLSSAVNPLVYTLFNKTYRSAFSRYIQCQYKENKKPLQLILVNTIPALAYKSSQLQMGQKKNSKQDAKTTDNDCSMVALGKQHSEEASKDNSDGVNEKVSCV
- Assay type: functional, cell-based
Readout: AC50

Example cases with answers are listed next.
Cc1ccccc1-n1c(CF)nc2ccc(N)cc2c1=O = > 10 µM
CN1Cc2c(N)cccc2C(c2ccccc2)C1 (centres undefined) = 15 µM
CCCC(C)(COC(N)=O)COC(N)=O [MEPROBAMATE] = > 10 µM
OC[C@H]1O[C@@H](n2cnc3c2NC=NC[C@H]3O)C[C@@H]1O = > 30 µM
c1ccc(C2(N3CCCCC3)CCCCC2)cc1 = > 30 µM
CC(=O)[C@H]1CC[C@H]2[C@@H]3C[C@H](C)C4=CC(=O)CC[C@]4(C)[C@H]3[C@@H](O)C[C@]12C = > 10 µM

Required: AC50, one value per compound below.
1. CO/N=C(\C(=O)N[C@@H]1C(=O)N2C(C(=O)O)=C(CSc3nc(=O)c(=O)[nH]n3C)CS[C@H]12)c1csc(N)n1
2. Cn1c(=O)c2c(ncn2CCOC(=O)C(C)(C)Oc2ccc(Cl)cc2)n(C)c1=O [THEOFIBRATE]
3. O=S1(=O)CCN(CN2CCS(=O)(=O)NC2)CN1

Output line:
1: > 30 µM; 2: > 30 µM; 3: > 30 µM
